Every entry's value here was drawn from patent US20230017045A1.

# Tested on: test plant species
# assayOverview: Post-emergent herbicidal activity test (greenhouse, foliar spray, visual growth reduction)
# Assay type: in vivo
# runParameters: post-emergence, 336 h, redroot pigweed (Amaranthus retroflexus), 14 Days After Application, 140 g ai/ha, read-out: Visual Growth Reduction (%) AMARE
# pest or weed control at 140 g/ha per entry

Solved entries (count: 5):
Check the records and state pest or weed control at 140 g/ha for `COC(=O)c1nc(-c2ccc3cc[nH]c3c2)c(F)cc1Cl` 0 to 29%

Using known records, supply pest or weed control at 140 g/ha for `COC(=O)c1nc(-c2ccc(Cl)c(CF)c2F)ccc1Cl` 0 to 29%

Return the recorded pest or weed control at 140 g/ha value; entry: `COC(=O)c1nc(-c2cc([N+](=O)[O-])c(C(F)(F)F)cc2Cl)c(F)cc1Cl` 60 to 74%

Dear colleague, please send me the reported pest or weed control at 140 g/ha for `COC(=O)c1nc(-c2ccc(O)cc2F)c(F)cc1Cl` when you can. 0 to 29%

Please indicate pest or weed control at 140 g/ha recorded for `COC(=O)c1nc(-c2ccc(C3CC3)c(F)c2)ccc1Cl` 0 to 29%

Continuing:
Give the reported value of pest or weed control at 140 g/ha for this record: `COC(=O)c1nc(-c2cc(SC)c(C(F)(F)F)cc2Cl)c(F)cc1Cl` 0 to 29%
